# study-target: ATP-dependent DNA helicase Q1 (Homo sapiens) (UniProt P46063)
# Sequence (P46063 whole entry, looked up): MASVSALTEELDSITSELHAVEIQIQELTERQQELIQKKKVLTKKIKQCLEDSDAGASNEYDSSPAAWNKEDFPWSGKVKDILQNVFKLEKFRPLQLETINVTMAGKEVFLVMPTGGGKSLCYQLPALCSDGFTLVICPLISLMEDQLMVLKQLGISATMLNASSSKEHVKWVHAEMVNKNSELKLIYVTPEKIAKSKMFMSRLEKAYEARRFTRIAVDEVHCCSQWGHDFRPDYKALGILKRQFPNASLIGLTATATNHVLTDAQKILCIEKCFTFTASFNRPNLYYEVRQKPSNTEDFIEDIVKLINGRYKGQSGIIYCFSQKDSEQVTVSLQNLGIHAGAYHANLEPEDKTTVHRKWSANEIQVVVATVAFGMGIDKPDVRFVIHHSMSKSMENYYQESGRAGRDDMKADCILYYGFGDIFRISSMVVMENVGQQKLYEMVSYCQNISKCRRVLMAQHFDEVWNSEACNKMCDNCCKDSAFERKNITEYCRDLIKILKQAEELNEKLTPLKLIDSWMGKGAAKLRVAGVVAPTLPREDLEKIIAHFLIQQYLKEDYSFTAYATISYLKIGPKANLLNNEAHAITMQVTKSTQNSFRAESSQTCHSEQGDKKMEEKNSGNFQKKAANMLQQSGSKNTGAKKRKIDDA
# method-description: qHTS Validation Assay for Inhibitors of RecQ-Like Dna Helicase 1 (RECQ1) (AID 2353)
# experimental-conditions: recombinant RECQ1 helicase DNA unwinding assay; series mostly up to 25.6 µM
# Method: Survival of cells and the faithful propagation of the genome depend on elaborate mechanisms of detecting and repairing DNA damage. […] The validation assay was a fluorescence quenching based kinetic qHTS for RECQ1 Helicase DNA unwinding. The activity was measured as ATP-dependent separation of a 20-bp DNA duplex extended by 30-nt single-stranded tails (forked duplex). […] Strand separation results in an increase in the fluorescence of TAMRA (excitation 525 nm, emission 598 nm). […]
The source made the active and inactive calls. Calls come from the whole dose curve; as a rule, active = well fitted inhibition curve with a large enough effect; inconclusive = small, poorly fitted or top-dose-only effect; inactive = flat fitted curve, though single readings scatter.
Result category, one only: 1 (yes) (active), 0 (no) (inactive)

Identify the outcome logged in this assay for the compound shown: CC12C(=O)OC(=O)C1(C)C1CCC2O1 (stereo unspecified) 0 (no)

Identify the outcome logged in this assay for the compound shown: `NCCCS(=O)(=O)O` 0 (no)

Identify the outcome logged in this assay for the compound shown: `O=c1[nH]c2cc([N+](=O)[O-])c([N+](=O)[O-])cc2[nH]c1=O` 0 (no)

Identify the outcome logged in this assay for the compound shown: `OC[C@H]1O[C@@H](n2cnc3c(NC4CCCCC4)ncnc32)[C@H](O)[C@@H]1O` 0 (no)

Identify the outcome logged in this assay for the compound shown: `C[N+](C)(CCCCCC[N+](C)(C)CCCN1C(=O)c2cccc3cccc(c23)C1=O)CCCN1C(=O)c2cccc3cccc(c23)C1=O` 0 (no)

Identify the outcome logged in this assay for the compound shown: `O=C(c1cc(O)c(O)c([N+](=O)[O-])c1)c1ccccc1F` 0 (no)

Identify the outcome logged in this assay for the compound shown: CCCCC/C=C\CC(O)/C=C/c1cccc(CC(O)CCCCO)n1 (stereo unspecified) 0 (no)

Identify the outcome logged in this assay for the compound shown: `N#C/C(=C\c1ccc(O)c(O)c1)C(=O)c1ccc(O)c(O)c1` 1 (yes)

Identify the outcome logged in this assay for the compound shown: `COC(=O)c1c(C)[nH]c(C)c1C(=O)c1ccccc1Cc1ccccc1` 0 (no)

Identify the outcome logged in this assay for the compound shown: C=CC(N)CCC(=O)O (stereo unspecified) 0 (no)

Identify the outcome logged in this assay for the compound shown: `NCCNC(=O)c1ncsc1-c1cccc(F)c1` 0 (no)

---

# method-description: qHTS profiling for inhibitors of Plasmodium falciparum proliferation (AID 504749); note: potency is the fitted concentration of half-maximal effect; nearly all actives have a fitted effect of over 60% in size
# experimental-conditions: P. falciparum in erythrocytes, SYBR Green DNA, 72 h; parasite line B
# Procedure: NIH National Institute of Allergy and Infectious Diseases [NIAID] NIH Chemical Genomics Center [NCGC] […] Because mature erythrocytes lack DNA, only Plasmodium-derived DNA is detected. NCGC Assay Protocol Summary: The SYBR Green viability assay was adapted from a method described previously (Plouffe et al., 2008). […] The following morning, fluorescence intensity at 485(14) nm excitation and 535(25) nm emission wavelengths was measured on an EnVision (Perkin Elmer) plate reader. […]
Inconclusive results are not listed. The source made the active and inactive calls. Calls follow the shape of the dose curve; as a rule, active = well fitted inhibition curve with a large enough effect; inconclusive = small, poorly fitted or top-dose-only effect; inactive = flat fitted curve, though single readings scatter.
For each of the molecules below, state its Potency.

The recorded Potency for entry `CC(=O)[C@]1(O)Cc2c(O)c3c(c(O)c2[C@@H](O[C@H]2C[C@H](N)[C@H](O)[C@H](C)O2)C1)C(=O)c1c(O)cccc1C3=O` equals 12.6 µM (active)

The recorded Potency for entry `CN(C)c1ccc(C(=C2C=CC(=[N+](C)C)C=C2)c2ccccc2)cc1` equals 11.2 µM (active)

The recorded Potency for entry `[O-][n+]1ccccc1SSc1cccc[n+]1[O-]` equals 0.891 µM (active)

The recorded Potency for entry COC(=O)C1=C(C)NC(C)=C(C(=O)OCC(C)C)C1c1ccccc1[N+](=O)[O-] (stereo not given) equals 10 µM (active)

The recorded Potency for entry `CN1[C@@H](CC(=O)c2ccccc2)CCC[C@H]1C[C@H](O)c1ccccc1` equals 12.6 µM (active)

---

# method-description: qHTS for differential inhibitors of proliferation of Plasmodium falciparum line D10 (AID 1877);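 note: parasites grown with compound for 72 h before DNA staining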
# experimental-conditions: series mostly up to 28.7 µM
Inconclusive results are not listed. Active and inactive are the calls of the source. The call rests on the fitted dose curve; in most records, active means well fitted curve in the direction sought with a large enough effect; inconclusive means small, poorly fitted or top-dose-only effect, or another doubt; inactive means no such curve, though single readings can be large or run the other way.
Result category, one only: Yes = active, No = inactive

Identify the outcome logged in this assay for the molecule shown: Cc1ccc(C(=O)O[C@H](C(=O)O)[C@@H](OC(=O)c2ccc(C)cc2)C(=O)O)cc1 (tested in a mixture with another compound) No

Identify the outcome logged in this assay for the molecule shown: `CC1(C)CCC=[N+]1[O-]` No

Identify the outcome logged in this assay for the molecule shown: `CN1CCc2cc(NC(=O)Nc3cccnc3)ccc21` No

Identify the outcome logged in this assay for the molecule shown: `CC(=O)SCC[N+](C)(C)C` No

Identify the outcome logged in this assay for the molecule shown: O=C1O/C(=C/Br)CCC1c1cccc2ccccc12 (configuration not stated) No

Identify the outcome logged in this assay for the molecule shown: CC12C(=O)OC(=O)C1(C)C1CCC2O1 (configuration not stated) Yes

Identify the outcome logged in this assay for the molecule shown: `NC[C@@H]1O[C@H](C23CC4CC(CC(C4)C2)C3)Cc2c1ccc(O)c2O` Yes

Identify the outcome logged in this assay for the molecule shown: `CC(C)(C)c1ccc(S(=O)(=O)/C=C/C#N)cc1` Yes

Identify the outcome logged in this assay for the molecule shown: `CC(=O)N[C@H](C(=O)O)C(C)(C)SN=O` No

Identify the outcome logged in this assay for the molecule shown: `c1cnc2c(c1)ccc1cccnc12` Yes

Identify the outcome logged in this assay for the molecule shown: O=C(O)CC1CCCc2ccccc2C1O (configuration not stated) No

Identify the outcome logged in this assay for the molecule shown: `NC(=O)C(=O)O` No

---

# study-target: Atrial natriuretic peptide receptor 1 (Homo sapiens)
# method-description: Natriuretic polypeptide receptor (hNpr1) antagonism - Pilot screen (AID 1347049);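 note: HEK293 cells with hNpr1 and GloSensor cGMP luciferase stimulated by 0.1 nM hNppA; agonist-evoked cGMP luminescence read 20 min after hNppA addition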
# experimental-conditions: hNpr1 cells, antagonist mode cGMP read-out; series mostly up to 57.5 µM
Records with an inconclusive call do not appear. Activity calls are given as the source filed them. The call rests on the fitted dose curve.
Result category, one only: active, inactive

Identify the outcome logged in this assay for the compound shown: `COC1=C(OC)C(=O)c2ccccc2C1=O` inactive

Identify the outcome logged in this assay for the compound shown: `CC(=O)/C=C1\C(=O)N(C)c2ccccc21` active

Identify the outcome logged in this assay for the compound shown: C#CCN1C(C)=C(C(=O)OC)C(c2cccc([N+](=O)[O-])c2)C(C(=O)OCC)=C1C (stereo not given) inactive

Identify the outcome logged in this assay for the compound shown: C=CC(N)CCC(=O)O (stereo not given) inactive

Identify the outcome logged in this assay for the compound shown: `CC(C)Cc1ccc([C@H](C)C(=O)O)cc1` inactive

Identify the outcome logged in this assay for the compound shown: `Nc1nc(Nc2ccccc2)nc2c1ncn2[C@@H]1O[C@H](CO)[C@@H](O)[C@H]1O` inactive

Identify the outcome logged in this assay for the compound shown: `Nc1ncnc2c1ncn2[C@@H]1O[C@H](COP(=O)(O)OP(=O)(O)OP(=O)(O)OP(=O)(O)OC[C@@H]2O[C@H](n3cnc4c(N)ncnc43)[C@@H](O)[C@H]2O)[C@@H](O)[C@H]1O` inactive

Identify the outcome logged in this assay for the compound shown: `Brc1c(Br)c(Br)c2n[nH]nc2c1Br` inactive

Identify the outcome logged in this assay for the compound shown: `C[C@@H](NC(=O)/C(C#N)=C/c1ccc(O)c(O)c1)c1ccccc1` inactive

Identify the outcome logged in this assay for the compound shown: `Cn1ncc(S(=O)(=O)Cc2ccccc2)c(Br)c1=O` inactive

---

# study-target: Catechol O-methyltransferase (Homo sapiens)
# method-description: Confirmatory Screen for Target Class Profiling of Small Molecule Inhibitors of Methyltransferases (AID 1745852)
# experimental-conditions: MTase-Glo luminescence, SAH detection, recombinant enzyme; measured here: COMT max response; stronger effect = lower value
measure-name: activity (%)
Just the number in %, nothing appended.

The recorded activity for entry `COc1ccc(NC(=O)/C=C/c2ccc(Cl)cc2)cc1` equals -21.5

The recorded activity for entry `COC1=C(OC)C(=O)c2ccccc2C1=O` equals -44.1

The recorded activity for entry `COc1cc(/C=C/C(=O)CC(=O)/C=C/c2ccc(O)c(OC)c2)ccc1O` equals -53.7

The recorded activity for entry `CCOC(=O)N1CCN(/[N+]([O-])=N/Oc2ccc([N+](=O)[O-])cc2[N+](=O)[O-])CC1` equals -99.7

The recorded activity for entry O=C(O)CNC(=O)C(CS)Cc1ccccc1 (stereo not given) equals 9.44

The recorded activity for entry `Oc1cc2c(cc1O)CN(C(=S)NCCc1ccc(Cl)cc1)CCC2` equals 160

The recorded activity for entry `O=Nc1ccc2oc(=O)ccc2c1` equals 0.573

The recorded activity for entry `NO` equals 3.62

The recorded activity for entry `Oc1ccccc1O` equals 160

The recorded activity for entry `Oc1cc(O)cc(/C=C/c2ccc(O)c(O)c2)c1` equals 119

The recorded activity for entry `COc1ccc(/C=C2\COc3ccc(C)cc3C2=O)cc1O` equals 3.43

The recorded activity for entry Oc1ccc(C2CNCc3sccc32)cc1O (stereo not given) equals 133

The recorded activity for entry `Fc1ccc(C(OCCCc2cnc[nH]2)c2ccc(F)cc2)cc1` equals 0.59

The recorded activity for entry `COc1cc(OC)c(/C=C2/C(=O)Nc3ccccc32)c(OC)c1` equals -23

The recorded activity for entry `O=C1NCc2c1c1c3ccccc3[nH]c1c1[nH]c3ccccc3c21` equals -23.6
